- SYSTEM: T1, human folate receptor alpha (hFRα), recombinant protein (human, UniProt P15328 25-233)
- T1 construct: Bought recombinant proteins (His-tagged, or biotinylated via Avi-tag, e.g. AcroBiosystems FO1-H82E2, F01-H52H1); also called hFOLR1; huFOLR1
- T1 sequence (P15328 25-233 limits assumed): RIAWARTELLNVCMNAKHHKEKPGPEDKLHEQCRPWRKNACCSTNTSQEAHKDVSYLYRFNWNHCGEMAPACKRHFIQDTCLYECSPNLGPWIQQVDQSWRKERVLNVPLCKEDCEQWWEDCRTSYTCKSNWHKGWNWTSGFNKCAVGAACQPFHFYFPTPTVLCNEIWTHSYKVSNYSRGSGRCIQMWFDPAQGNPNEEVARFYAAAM
- EXPERIMENT DESCRIPTION: BLI, FRα on AR2G biosensors, 1:1 model
This section presents binders with their documented koff values.
PARAMETER MEASURED: koff (s⁻¹)

BINDER	PARAMETER MEASURED	OBSERVED RESULT
VHH 3HFO26 (family 1) (VHH) VHH: QVQLQESGGGLVQPGGSLRITCVASGFPFSTYYMSWVRQAPGKGLEWVSGINSNGGVIDYADSVKGRFTISRDNAKNTLYLQLNSLKPEDTALYFCARGRAFVATMPSSLRGQGTQVTVSS	koff	0.182
VHH 3MFR60 (family 10) (VHH) VHH: QVQLQESGGGLVQAGGSLRVSCAASGIIFSMNGMGWFRQAPGKQRELVASITSGGSTKYADSVKGRFTISRDNAKNTVYLQMNSLKPEDTAVYYCNIQFGSRWSTYWGQGTQVTVSS	koff	0.159
VHH 2MFR7 (family 1) (VHH, also called 2MFRO7) VHH: QVQLQESGGGLVQPGGSLRLSCAASGFPFSTYYMSWVRQAPGKGLEWVSGINSNGGVIDYADSVKGRFTISRDNAKNTLYLQLNSLKPEDTALYFCARGRAFVATMPSSLRGQGTQVTVSS	koff	0.0849
VHH 2HFO42 (family 3) (VHH, also called 2HF042; Nb42) VHH: QVQLQESGGGLVQAGGSLRLSCAASGSGFSGMIMGWYRQVPGKQRELVATVTSHGTTNYADSVKGRFTISRDNAKNTVLLQMNSLKPEDTAVYYCNAHFPGIYWGKGTQVTVSS	koff	0.0276
VHH 2HFO19 (family 1) (VHH, also called Nb19) VHH: QVQLQESGGGLVQPGGSLRVSCAASGFPFSTVYMSWVRQAPGKGLEWVSGINNDGGVIDYADSVKGRFTISRDNAKNTLYLQLNSLKPEDTALYFCARGRSFVATLSSSLRGQGTQVTVSS	koff	0.0149

Where do the numbers come from? From patent US20250304677A1.
